System: DU145
EXPERIMENT DESCRIPTION: MTT assay, antiproliferative effect on DU145
Assay type: cell-based
CONDITION DETAILS: Homo sapiens, DU-145, 48 h, read-out: IC50 DU145 48 h
READOUT TYPE: IC50 (µM)

COc1cc(C(=O)/C=C/c2ccc(=O)[nH]c2)cc(OC)c1OC: 15.6
COc1cc(C(=O)/C=C/c2cccc(O)c2)cc(OC)c1OC: 2.97
COc1cc(C(=O)/C=C/c2coc3ccc(O)cc3c2=O)cc(OC)c1OC: 7.09

(I) COc1cc(C(=O)/C=C/c2c[nH]c3ccccc23)cc(OC)c1OC
(II) COc1cc(/C=C/C(=O)c2cc(OC)c(OC)c(OC)c2)ccc1O
// compare measured IC50 between I and II ; output the lower one Lab log: write the label of the selected item as the result.
I
